Molecular target: β-secretase(BACE) (Homo sapiens, UniProt P56817)
Construct: purchased Panvera
Sequence (P56817 46-501): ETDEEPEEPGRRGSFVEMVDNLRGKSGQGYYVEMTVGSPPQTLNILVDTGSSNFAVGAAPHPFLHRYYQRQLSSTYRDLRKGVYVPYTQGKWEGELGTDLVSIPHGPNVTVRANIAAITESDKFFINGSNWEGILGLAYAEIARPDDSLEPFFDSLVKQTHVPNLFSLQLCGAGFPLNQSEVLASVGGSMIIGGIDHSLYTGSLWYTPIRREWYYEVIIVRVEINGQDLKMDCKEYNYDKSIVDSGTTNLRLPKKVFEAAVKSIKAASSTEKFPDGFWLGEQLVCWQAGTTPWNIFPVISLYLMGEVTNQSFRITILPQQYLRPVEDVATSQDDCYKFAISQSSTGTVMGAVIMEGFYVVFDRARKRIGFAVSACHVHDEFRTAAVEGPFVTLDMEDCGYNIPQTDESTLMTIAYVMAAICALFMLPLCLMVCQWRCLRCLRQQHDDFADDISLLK
Assay: BACE FS1% Inhibition Assay
Format: biochemical
Details: 1 μM test compound; FS1 substrate
Description: BACE FS1% Inhibition Assay The following reagents were used in this assay: sodium acetate, PEG8000 (Sigma), DMSO, HEPES, FS1 substrate [[…]] […] The FS1-substrate stock solution was prepared in DMSO as a 10 mg/mL solution. The FS1-substrate working solution was prepared by diluting the 10 mg/mL stock solution with substrate assay buffer to a final concentration of 300 μg/mL. […] For test compounds, % inhibition was determined at each concentration as follows: [formula]
Values of % Inhibition (FS) strictly less than 40% map to YES, and values of at least 40% map to NO.

> print(dat)
                                    compound                          target.or.system  cat
 1  CN(C(=O)CC[C@@H](C1CCCCC1)N1Cc2cc(Oc3ccccc3)ccc2N=C1N)C1CCC(=O)CC1 [Compound 711]  β-secretase(BACE) (Homo sapiens, UniProt P56817)   NO
 2  NC1=Nc2ccc(-c3ccccc3Cl)cc2CN1CCNC(=O)C1CCC(C(F)(F)F)CC1 (stereo not shown) [Compound 690]  β-secretase(BACE) (Homo sapiens, UniProt P56817)  YES
 3  CC(=O)N1CCC(C(=O)NCCN2Cc3cc(-c4ccccc4Cl)ccc3N=C2N)CC1 [Compound 691]  β-secretase(BACE) (Homo sapiens, UniProt P56817)  YES
 4  CN(C(=O)CC[C@@H](C1CCCCC1)N1Cc2ccc(Oc3ccccc3)cc2N=C1N)C1CCCCC1 [Compound 754]  β-secretase(BACE) (Homo sapiens, UniProt P56817)  YES
 5  NC1=Nc2ccc(-c3cnc4ccccc4c3)cc2CN1CCNC(=O)C1CCC1 [Compound 670]  β-secretase(BACE) (Homo sapiens, UniProt P56817)  YES
 6  CC(CC(=O)NCCN1Cc2cc(-c3ccccc3F)ccc2N=C1N)C(F)(F)F (stereo not shown) [Compound 681]  β-secretase(BACE) (Homo sapiens, UniProt P56817)   NO
 7  CC(=O)N1CCC(C(=O)NCCN2Cc3cc(-c4ccccc4)ccc3N=C2N)CC1 [Compound 702]  β-secretase(BACE) (Homo sapiens, UniProt P56817)  YES
 8  NC1=Nc2ccc(-c3ccccc3)cc2CN1CCNC(=O)CCC(F)(F)F [Compound 684]  β-secretase(BACE) (Homo sapiens, UniProt P56817)  YES
 9  CN(C(=O)CCC(C1CCCCC1)N1Cc2cc(Oc3ccccc3)ccc2N=C1N)c1ccc(C(=O)O)cc1 (stereo not shown) [Compound 766]  β-secretase(BACE) (Homo sapiens, UniProt P56817)  YES
10  Cc1ccccc1-c1ccc2c(c1)CN(CCNC(=O)CCC(C)C)C(N)=N2 [Compound 661]  β-secretase(BACE) (Homo sapiens, UniProt P56817)   NO
11  COc1ccccc1-c1ccc2c(c1)CN([C@@H](CCC(=O)N(C)Cc1cc(-c3ccccc3)on1)C1CCCCC1)C(N)=N2 [Compound 719]  β-secretase(BACE) (Homo sapiens, UniProt P56817)  YES
12  COC1CCCC(C(=O)NCCN2Cc3cc(-c4ccccc4C)ccc3N=C2N)C1 (stereo not shown) [Compound 696]  β-secretase(BACE) (Homo sapiens, UniProt P56817)   NO
13  CC(=O)N1CCC(C(=O)NCCN2Cc3cc(C4=CCCCC4)ccc3N=C2N)CC1 [Compound 705]  β-secretase(BACE) (Homo sapiens, UniProt P56817)  YES
14  CN(C(=O)CCC(C1CCCCC1)N1Cc2cc(Oc3ccccc3)ccc2N=C1N)C1CCC(C(=O)OCc2ccccc2)CC1 (stereo not shown) [Compound 760]  β-secretase(BACE) (Homo sapiens, UniProt P56817)   NO
15  CNC(=O)C1CCC(N(C)C(=O)CCC(C2CCCCC2)N2Cc3cc(Oc4ccccc4)ccc3N=C2N)CC1 (stereo not shown) [Compound 765]  β-secretase(BACE) (Homo sapiens, UniProt P56817)   NO
